Reference for the values: patent US20250250357A1

target: T1, human MSLN-R3-his protein (human, UniProt Q13421 487-598); assay: ELISA on coated antigen, antibody 0.0002 nM
T1 construct: it is put last here; also called human MSLN-R3 protein; hMSLN-R3-his; not shown: His tag
T1 sequence (Q13421 495-606): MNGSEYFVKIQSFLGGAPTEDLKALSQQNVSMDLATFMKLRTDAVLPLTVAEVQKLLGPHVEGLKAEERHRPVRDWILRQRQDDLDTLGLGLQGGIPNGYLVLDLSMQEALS
Measured OD450, listed per entry for reference.
# value in OD; strip the unit string

S009-F7.48.1 (antibody, human IgG1, kappa, V domains shown, Human-murine chimeric antibody, human IgG1 heavy and kappa light constant regions) VH: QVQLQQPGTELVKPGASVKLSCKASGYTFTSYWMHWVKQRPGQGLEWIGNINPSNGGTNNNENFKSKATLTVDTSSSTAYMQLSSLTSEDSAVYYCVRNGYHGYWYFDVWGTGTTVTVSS VL: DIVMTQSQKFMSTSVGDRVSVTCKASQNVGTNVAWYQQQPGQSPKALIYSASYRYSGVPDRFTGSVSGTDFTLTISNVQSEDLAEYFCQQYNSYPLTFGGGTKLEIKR :: 0.05
S009-F7.66.12 (antibody, human IgG1, kappa, V domains shown, Human-murine chimeric antibody, human IgG1 heavy and kappa light constant regions) VH: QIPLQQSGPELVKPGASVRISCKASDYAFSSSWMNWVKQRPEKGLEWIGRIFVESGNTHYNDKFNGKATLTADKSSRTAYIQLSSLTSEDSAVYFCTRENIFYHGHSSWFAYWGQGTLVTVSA VL: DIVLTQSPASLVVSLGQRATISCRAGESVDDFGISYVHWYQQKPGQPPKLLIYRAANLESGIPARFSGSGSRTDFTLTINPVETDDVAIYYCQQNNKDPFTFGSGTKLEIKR :: 0.14
S009-F7.23.19 (antibody, human IgG1, kappa, V domains shown, Human-murine chimeric antibody, human IgG1 heavy and kappa light constant regions) VH: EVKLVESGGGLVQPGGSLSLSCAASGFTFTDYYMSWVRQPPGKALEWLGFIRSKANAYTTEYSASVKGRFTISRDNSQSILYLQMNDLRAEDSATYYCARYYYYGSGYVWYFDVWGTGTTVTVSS VL: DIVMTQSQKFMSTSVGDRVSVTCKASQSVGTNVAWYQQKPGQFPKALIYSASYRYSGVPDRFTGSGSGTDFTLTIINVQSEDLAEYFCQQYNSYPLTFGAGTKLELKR :: 0.08
S009-F7.69.8 (antibody, human IgG1, kappa, V domains shown, Human-murine chimeric antibody, human IgG1 heavy and kappa light constant regions) VH: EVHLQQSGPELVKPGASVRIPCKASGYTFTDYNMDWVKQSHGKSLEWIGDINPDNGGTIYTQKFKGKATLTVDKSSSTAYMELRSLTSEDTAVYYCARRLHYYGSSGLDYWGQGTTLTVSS VL: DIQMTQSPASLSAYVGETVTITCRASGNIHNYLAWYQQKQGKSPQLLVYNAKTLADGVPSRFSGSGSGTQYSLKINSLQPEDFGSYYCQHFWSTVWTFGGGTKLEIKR :: 0.06
S009-F7.2.3 (antibody, human IgG1, kappa, V domains shown, Human-murine chimeric antibody, human IgG1 heavy and kappa light constant regions) VH: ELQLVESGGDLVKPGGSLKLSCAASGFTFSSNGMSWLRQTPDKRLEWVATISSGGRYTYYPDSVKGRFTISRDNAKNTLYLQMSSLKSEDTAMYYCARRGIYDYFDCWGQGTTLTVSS VL: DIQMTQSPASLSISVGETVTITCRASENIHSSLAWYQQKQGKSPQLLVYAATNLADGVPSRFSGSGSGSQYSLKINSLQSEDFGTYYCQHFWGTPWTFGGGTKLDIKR :: 0.06
S009-F7.61.21 (antibody, human IgG1, kappa, V domains shown, Human-murine chimeric antibody, human IgG1 heavy and kappa light constant regions) VH: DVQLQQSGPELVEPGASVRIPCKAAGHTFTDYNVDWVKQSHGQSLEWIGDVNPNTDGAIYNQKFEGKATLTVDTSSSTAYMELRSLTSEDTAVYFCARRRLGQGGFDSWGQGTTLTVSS VL: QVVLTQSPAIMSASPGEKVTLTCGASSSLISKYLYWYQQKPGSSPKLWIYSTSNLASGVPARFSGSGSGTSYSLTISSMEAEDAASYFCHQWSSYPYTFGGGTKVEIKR :: 0.05

Q. Note down OD450 recorded for S009-F7.12.13 (antibody, human IgG1, kappa, V domains shown, Human-murine chimeric antibody, human IgG1 heavy and kappa light constant regions) VH: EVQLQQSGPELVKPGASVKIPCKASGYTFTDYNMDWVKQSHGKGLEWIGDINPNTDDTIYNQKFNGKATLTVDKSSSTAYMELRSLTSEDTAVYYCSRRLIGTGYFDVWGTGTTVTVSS VL: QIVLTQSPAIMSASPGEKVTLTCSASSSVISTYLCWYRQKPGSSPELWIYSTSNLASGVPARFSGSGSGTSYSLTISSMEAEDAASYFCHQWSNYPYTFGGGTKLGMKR
A. 0.06

Q. Note down OD450 recorded for S009-F7.11.11 (antibody, human IgG1, kappa, V domains shown, Human-murine chimeric antibody, human IgG1 heavy and kappa light constant regions) VH: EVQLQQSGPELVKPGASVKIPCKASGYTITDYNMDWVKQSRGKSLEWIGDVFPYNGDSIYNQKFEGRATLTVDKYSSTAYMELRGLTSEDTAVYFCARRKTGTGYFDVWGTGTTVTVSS VL: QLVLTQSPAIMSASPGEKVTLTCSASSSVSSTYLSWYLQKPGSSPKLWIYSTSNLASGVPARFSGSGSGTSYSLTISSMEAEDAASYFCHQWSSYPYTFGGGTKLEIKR
A. 0.06

Q. Note down OD450 recorded for S009-F7.65.13 (antibody, human IgG1, kappa, V domains shown, Human-murine chimeric antibody, human IgG1 heavy and kappa light constant regions) VH: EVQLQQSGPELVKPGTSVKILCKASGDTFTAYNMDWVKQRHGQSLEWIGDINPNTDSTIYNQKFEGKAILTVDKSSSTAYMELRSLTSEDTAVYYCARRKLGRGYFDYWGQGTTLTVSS VL: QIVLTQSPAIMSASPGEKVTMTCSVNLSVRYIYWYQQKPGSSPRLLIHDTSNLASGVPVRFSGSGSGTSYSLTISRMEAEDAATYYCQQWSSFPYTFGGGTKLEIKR
A. 0.07

Q. Note down OD450 recorded for S009-F7.33.24 (antibody, human IgG1, kappa, V domains shown, Human-murine chimeric antibody, human IgG1 heavy and kappa light constant regions) VH: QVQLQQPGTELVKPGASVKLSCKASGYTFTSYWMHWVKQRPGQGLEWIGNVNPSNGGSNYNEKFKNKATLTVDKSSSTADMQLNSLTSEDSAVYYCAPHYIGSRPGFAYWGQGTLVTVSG VL: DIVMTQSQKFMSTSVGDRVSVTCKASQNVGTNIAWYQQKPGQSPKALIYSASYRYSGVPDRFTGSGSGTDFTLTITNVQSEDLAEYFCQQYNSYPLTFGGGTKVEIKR
A. 0.23
